Hello, the source for this data is the RNAGym collection of RNA variant scans (doi:10.1073/pnas.2313332121), in case you need it.

B1: TPR t1 (parent)
chain: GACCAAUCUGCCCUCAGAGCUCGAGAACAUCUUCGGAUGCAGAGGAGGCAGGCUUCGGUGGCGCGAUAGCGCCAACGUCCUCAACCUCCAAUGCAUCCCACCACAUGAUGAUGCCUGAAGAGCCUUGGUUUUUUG

Variants of: B1
assay: polymerase ribozyme fitness, log enrichment relative to wild type (log ratio); higher = more active; in vitro selection for triplet polymerase activity
The variants listed here are annotated with their polymerase ribozyme fitness (log ratio).

Example entries begin here.
{"var": "C15A G48C", "polymerase ribozyme fitness (log ratio)": -3.05}
{"var": "C20G C123G", "polymerase ribozyme fitness (log ratio)": -2.95}
{"var": "C22G G48C C85G U112G", "polymerase ribozyme fitness (log ratio)": -3}

# evaluate next
## Task Given the entry A103C C123G , report its measured polymerase ribozyme fitness (log ratio).
## Result -2.94
